target of assay: PDE7 (type VII phosphodiesterase) (Homo sapiens, UniProt Q13946)
Construct: endogenous in cells
Sequence (Q13946 whole entry): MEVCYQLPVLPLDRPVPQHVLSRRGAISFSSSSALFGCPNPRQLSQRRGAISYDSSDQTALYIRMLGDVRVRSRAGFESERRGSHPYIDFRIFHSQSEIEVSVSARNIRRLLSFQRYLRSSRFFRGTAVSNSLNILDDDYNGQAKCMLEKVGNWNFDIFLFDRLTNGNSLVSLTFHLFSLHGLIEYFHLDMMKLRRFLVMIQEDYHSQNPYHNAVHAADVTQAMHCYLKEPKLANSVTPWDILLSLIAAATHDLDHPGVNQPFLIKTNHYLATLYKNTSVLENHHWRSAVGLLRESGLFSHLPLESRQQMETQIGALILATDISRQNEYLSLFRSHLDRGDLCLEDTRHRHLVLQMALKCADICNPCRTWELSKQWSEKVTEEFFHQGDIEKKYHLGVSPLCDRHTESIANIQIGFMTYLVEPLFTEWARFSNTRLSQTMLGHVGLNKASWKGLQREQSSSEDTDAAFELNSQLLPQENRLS
assay summary: PDE7 inhibiting activity (3H-cAMP hydrolysis, active fraction from MOLT-4 cells)
condition label: PDE7 fraction from MOLT-4 cells, 0.064 μM cAMP, 10 μM rolipram present, 2 hours at 25° C.; read-out: IC50 values for phosphodiesterase inhibiting activities (PDE7)
We begin with a simple list: items and their reported IC50.

Take a look at these entries with their results.
>>> reported_value("COc1cc(NS(C)(=O)=O)ccc1-c1nc2c(c(C3CCCCC3)nn2C)c(=O)[nH]1")
"≤ 0.01 µM"
>>> reported_value("COc1cc(N2CCCS2(=O)=O)ccc1-c1nc2c(c(C3CCCCC3)nn2C)c(=O)[nH]1")
"≤ 0.01 µM"
>>> reported_value("COc1cc(N2CCNC2=O)ccc1-c1nc2c(c(C3CCCCC3)nn2C)c(=O)[nH]1")
"≤ 0.01 µM"
>>> reported_value("CCOc1cc(N2CCCNCC2)ccc1-c1nc2c(C)nn(C3CCCCC3)c2c(=O)[nH]1")
"≤ 0.01 µM"
>>> reported_value("CNS(=O)(=O)c1ccc(-c2nc3c(C)nn(C4CCCCC4)c3c(=O)[nH]2)c(OC)c1")
"≤ 1 µM"

Find the measured IC50 of "COc1cc(S(=O)(=O)N2CCN(CCO)CC2)ccc1-c1nc2c(C)nn(C3CCCCC3)c2c(=O)[nH]1" and report it.
≤ 1 µM

###

target of assay: PDE7 (type VII phosphodiesterase) (Homo sapiens, UniProt Q13946)
Construct: endogenous in cells
assay summary: PDE7 inhibiting activity (3H-cAMP hydrolysis, active fraction from MOLT-4 cells)
condition label: PDE7 fraction from MOLT-4 cells, 0.064 μM cAMP, 10 μM rolipram present, 2 hours at 25° C.; read-out: IC50 values for phosphodiesterase inhibiting activities (PDE7)
Structures can show the parent of a compound that is named as a salt.
We begin with a simple list: items and their reported IC50.

>>> reported_value("COc1cc(N2CCSCC2)ccc1-c1nc2c(c(C3CCCCC3)nn2C)c(=O)[nH]1")
"≤ 1000 nM"
>>> reported_value("Cc1nn(C2CCCCC2)c2c(=O)[nH]c(-c3ccc(N4CCN(C)CC4)cc3)nc12")
"≤ 1000 nM"
>>> reported_value("Cc1nn(C2CCCCC2)c2c(=O)[nH]c(-c3cc(Cl)ccn3)nc12")
"≤ 1000 nM"
>>> reported_value("COCC(=O)Nc1ccc(-c2nc3c(c(C4CCCCC4)nn3C)c(=O)[nH]2)c(OC)c1")
"≤ 10 nM"
>>> reported_value("COc1cc(N2CCNCC2)ccc1-c1nc2c(c(C3CCCCC3)nn2C)c(=O)[nH]1")
"≤ 10 nM"
>>> reported_value("CCN(CCO)c1ccc(-c2nc3c(C)nn(C4CCCCC4)c3c(=O)[nH]2)c(OC)c1 [Example 115, monohydrochloride]")
"≤ 1000 nM"
>>> reported_value("CCNc1ccc(-c2nc3c(C)nn(C4CCCCC4)c3c(=O)[nH]2)c(OC)c1")
"≤ 1000 nM"
>>> reported_value("COc1cc(N2CCNCC2)ccc1-c1nc2c(c(C3CCCCCC3)nn2C)c(=O)[nH]1 [Example 78, monomethanesulfonate]")
"≤ 10 nM"
>>> reported_value("COc1cc(S(=O)(=O)N(C)CCO)ccc1-c1nc2c(c(C3CCCCC3)nn2C)c(=O)[nH]1")
"≤ 1000 nM"
>>> reported_value("COc1ccccc1-c1nc2c(C)nn(C3CCCCC3)c2c(=O)[nH]1")
"≤ 1000 nM"

Report the value of IC50 obtained on PDE7 (type VII phosphodiesterase) (Homo sapiens, UniProt Q13946) for CN1CCN(c2ccc(-c3nc4c(c(C5CCCCC5)nn4C)c(=O)[nH]3)c(OC(F)F)c2)CC1 [Example 139, monomethanesulfonate] .
≤ 1000 nM

Report the value of IC50 obtained on PDE7 (type VII phosphodiesterase) (Homo sapiens, UniProt Q13946) for "COc1cc(OCCO)ccc1-c1nc2c(c(C3CCCCC3)nn2C)c(=O)[nH]1" .
≤ 1000 nM

Report the value of IC50 obtained on PDE7 (type VII phosphodiesterase) (Homo sapiens, UniProt Q13946) for "Cc1nn(C2CCCCC2)c2c(=O)[nH]c(-c3ccc([N+](=O)[O-])cc3)nc12" .
≤ 1000 nM

Report the value of IC50 obtained on PDE7 (type VII phosphodiesterase) (Homo sapiens, UniProt Q13946) for "COc1cc(NC(=O)N2CCOCC2)ccc1-c1nc2c(c(C3CCCCC3)nn2C)c(=O)[nH]1" .
≤ 10 nM

Report the value of IC50 obtained on PDE7 (type VII phosphodiesterase) (Homo sapiens, UniProt Q13946) for "COc1cc(N2CCC(N(C)C(C)=O)CC2)ccc1-c1nc2c(C)nn(C3CCCCC3)c2c(=O)[nH]1" .
≤ 1000 nM

Report the value of IC50 obtained on PDE7 (type VII phosphodiesterase) (Homo sapiens, UniProt Q13946) for "COc1cc(S(=O)(=O)NCCO)ccc1-c1nc2c(c(C3CCCCC3)nn2C)c(=O)[nH]1" .
≤ 1000 nM

###

target of assay: PDE7 (type VII phosphodiesterase) (Homo sapiens, UniProt Q13946)
Construct: endogenous in cells
assay summary: PDE7 inhibiting activity (3H-cAMP hydrolysis, active fraction from MOLT-4 cells)
condition label: PDE7 fraction from MOLT-4 cells, 0.064 μM cAMP, 10 μM rolipram present, 2 hours at 25° C.; read-out: IC50 values for phosphodiesterase inhibiting activities (PDE7)
recorded endpoint: IC50

Take a look at these entries with their results.
>>> reported_value("CCOc1cc(NCCOC)ccc1-c1nc2c(C)nn(C3CCCCC3)c2c(=O)[nH]1 [Example 263]")
"≤ 0.01 µM"
>>> reported_value("CNc1ccc(-c2nc3c(c(C4CCCCC4)nn3C)c(=O)[nH]2)c(OC)c1 [Example 47]")
"≤ 0.01 µM"
>>> reported_value("CNCCCN(C)c1ccc(-c2nc3c(C)nn(C4CCCCC4)c3c(=O)[nH]2)c(OC)c1 [Example 111, monofumarate]")
"≤ 0.01 µM"
>>> reported_value("COc1cc(N2CCOCC2)ccc1-c1nc2c(c(C3CCCCC3)nn2C)c(=O)[nH]1 [Example 59]")
"≤ 1 µM"
>>> reported_value("Cc1nn(C2CCCCC2)c2c(=O)[nH]c(-c3ccccc3)nc12 [Example 1]")
"≤ 1 µM"
>>> reported_value("COc1cc(S(=O)(=O)N2CCN(C)CC2)ccc1-c1nc2c(C)nn(C3CCCCC3)c2c(=O)[nH]1 [Example 214]")
"≤ 1 µM"

Find the measured IC50 of COc1cc(CN2CCC(O)CC2)ccc1-c1nc2c(C)nn(C3CCCCC3)c2c(=O)[nH]1 [Example 236] and report it.
≤ 1 µM

Find the measured IC50 of COc1cc(N2CCN(C)CC2)c(F)cc1-c1nc2c(c(C3CCCCC3)nn2C)c(=O)[nH]1 [Example 82] and report it.
≤ 0.01 µM

Find the measured IC50 of COc1cc(N(C)C(C)=O)ccc1-c1nc2c(c(C3CCCCC3)nn2C)c(=O)[nH]1 [Example 146] and report it.
≤ 1 µM

Find the measured IC50 of COc1cc(N2CCN(C)CC2)ccc1-c1nc2c(c(C3CCCCCC3)nn2C)c(=O)[nH]1 [Example 64] and report it.
≤ 1 µM

Find the measured IC50 of CN1CCN(c2ccc(-c3nc4c(c(C5CCCCC5)nn4C)c(=O)[nH]3)cc2)CC1 [Example 179, monomethanesulfonate] and report it.
≤ 1 µM

Find the measured IC50 of COc1cc(N2CCOC2=O)ccc1-c1nc2c(c(C3CCCCC3)nn2C)c(=O)[nH]1 [Example 143] and report it.
≤ 0.01 µM

Find the measured IC50 of CNCCN(C)c1ccc(-c2nc3c(C)nn(C4CCCCC4)c3c(=O)[nH]2)c(OC)c1 [Example 103, monofumarate] and report it.
≤ 0.01 µM

###

target of assay: PDE7 (type VII phosphodiesterase) (Homo sapiens)
Construct: endogenous in cells
assay summary: PDE7 inhibiting activity (3H-cAMP hydrolysis, active fraction from MOLT-4 cells)
condition label: PDE7 fraction from MOLT-4 cells, 0.064 μM cAMP, 10 μM rolipram present, 2 hours at 25° C.; read-out: IC50 values for phosphodiesterase inhibiting activities (PDE7)
We begin with a simple list: items and their reported IC50.

Take a look at these entries with their results.
>>> reported_value("COc1cc(/C=C/C(=O)O)ccc1-c1nc2c(C)nn(C3CCCCC3)c2c(=O)[nH]1 [Example 227]")
"≤ 10 nM"
>>> reported_value("CCOc1cc(NCCOC)ccc1-c1nc2c(c(C3CCCCC3)nn2C)c(=O)[nH]1 [Example 117]")
"≤ 10 nM"

# evaluate next
Find the measured IC50 of COc1cc(OCC(=O)O)ccc1-c1nc2c(c(C3CCCCC3)nn2C)c(=O)[nH]1 [Example 41] and report it.
≤ 1000 nM

FYI, the data here is from patent US7268128B2.
